# Procedure summary: soluble on expression in E. coli; label from the status in PepcDB or PDB records

- Residue string: "MELLLYSLDNEGPIRFIQITDTHLVEAADGHLLGLETQNSLEHVLSSVQSENDQFDFFVVSGDISQDGSLSSYQRLHESLAPFNVPSFWFPGNHDEMSNMKVVCQDTEHLVNIIRTPHWQLVLLNSQVEGAVFGNLGDDQFELLERALTERPDLHTLISLHHHPIPMESNWMDKIGVKNGDKLMAMARKYPKVKCILWGHVHQDSDRMVDGIRMLSTPSTCVQFMPKSKDFNIDMIAPGYRRLQLNPDGSIETEMSRVEGIEFEVDLSVKGY"
  soluble on expression in E. coli: "soluble"
- Residue string: "MSLTPQQVFVKCHFDYNPYNDNLIPCKEAGLKFSKGEILQIVNREDPNWWQASHVKEGGSAGLIPSQFLEEKRKAFVRRDWDNSGPFCGTISSKKKKKMMYLTTRNAEFDRHEIQIYEEVAKMPPFQRKTLVLIGAQGVGRRSLKNRFIVLNPTRFGTTVPFTSRKPREDEKDGQAYKFVSRSEMEADIKAGKYLEHGEYEGNLYGTKIDSILEVVQTGRTCILDVNPQALKVLRTSEFMPYVVFIAAPELETLRAMHKAVVDAGITTKLLTDSDLKKTVDESARIQRAYNHYFDLIIINDNLDKAFEKLQTAIEKLRMEPQWVPISWVYEGHHHHHH"
  soluble on expression in E. coli: "soluble"

* * *

# Procedure summary: soluble on expression in E. coli; label from the status in PepcDB or PDB records
Assay metric: soluble on expression in E. coli

Solved entries (count: 5):
- Residue string: "GPGSMKVSSFIVQLRPGFFRLMIHAKPGARSTALAAQPQALDEALEVRLAAPPVDGKANTELVEFMQTLLEQQLATLRITQKQHLRKSGCEDGEDEVYTYEHYAKKKKSKNNKRMNEDSKSGEAKVEYPDDKVRVSLVSGLTSRNKVLEVTFPGTEEDLLAVLKSADFS"
  soluble on expression in E. coli: "soluble"
- Residue string: "MPLTLYQRDDCHLCDQAVEVVAQARAGDFDSVFIDDDAALEAVYGARVPVLRDARGRELEWPFDRVRLRAWLDDDAERLEHHHHHH"
  soluble on expression in E. coli: "not soluble"
- Residue string: "MNRNRLPALTPGLAWSRPMNGAVDHKGYEQPTYDLEFAETATEIRRYGPYLVAEVTMAGDRSTAITRGFRVLARYIFGGNAESRRIEMTVPVSQLPAGEDLWTVRFTMPAVRSASLLPAPKDSRIRFVTVPPSRQAVRRFSGWPTDHALRRQAEGLAHWIAERGLPKREGPYFYFYDSPMTLPWQRRNEVAFGLGEGAAALEHHHHHH"
  soluble on expression in E. coli: "not soluble"
- Residue string: "MSLVFDTHLHTLFSTDSKMNIEEAIDAGEKKNLGIIITEHIDLNYPVKGEFVFDIDKYFKEYNKYRSNKVLLGVEIGMGEEIKEQNKSINDKYEFDYVLGSIHLLNGLDLYEKTIYKSSPKKEVFEMYFKTMLACLRCHEYIDSLAHIDYISRYAAYHDGEIYYNEYSDYIDEVLKFIVDREIVIEINTRRLNKKEVCENLMPIYKRYSELGGRFVTIGSDSHYKDSIGLNFKNALKMAENCNLKPVFFEKRLMKYAEGHHHHHH"
  soluble on expression in E. coli: "soluble"
- Residue string: "MGSDKIHHHHHHMGGNSLSKELYDWLGYSSETATASAFVQQRDKIRPEALKLLFHEFTRLTVSENSLQDYRLLAVDGSDLRLPSNSKDGFSSIRNSEDSKNYNLVHLDAMYDLMGKVYVDASVQSKKGMNEHKALVSMVDQSEINGNVIAIMDRGYESFNNIAHFQEKSWYYIIRAKESYGIISRLSLPDYPEYDEEIMLTLTRRQTKETLPLLKAYPHRYRWIQPHTTFDFIKPKDSKFYDLHFRAVRFAIADGVYETVYTNLNAEDFPPEKLKQLYNLRWGIETSFKELKYAVGLASLHSKKKDFILQEIFARLILYNYSSIIMHHISISEDLRVNFPVALNICRQFLRELIPAVQVLKLIGKHLSPIRPGRQFPRHQNPISAVGFQYRII"
  soluble on expression in E. coli: "not soluble"

Req: # input sequence: ISISRADLAFDLFEVDCSEFVLEKKGRPTATKEFRSSTGTLETKYLGAPRSEKQVRLYNKKKEQLQNGTDKDKDFASQFKHWWRLEFQLRSRSIDEIFEVIDTIIFKPFNLKGLSIETQIYLTALIHDKNIWKKLHRNTRARYKKILETHQTSDTDYLGLLKDLLKHERPRLENQLAYYGGRIDKNSFQPFC ; wanted: its soluble on expression in E. coli
Resp: not soluble

Req: Next up: MTKTAFLFAGQGAQYLGMGRDFYDQYPIVKETIDRASQVLGYDLRYLIDTEEDKLNQTRYTQPAILATSVAIYRLLQEKGYQPDMVAGLSLGEYSALVASGALDFEDAVALVAKRGAYMEEAAPADSGKMVAVLNTPVEVIEEACQKASELGVVTPANYNTPAQIVIAGEVVAVDRAVELLQEAGAKRLIPLKVSGPFHTSLLEPASQKLAETLAQVSFSDFTCPLVGNTEAAVMQKEDIAQLLTRQVKEPVRFYESIGVMQEAGISNFIEIGPGKVLSGFVKKIDQTAHLAHVEDQASLVALLEKL
Resp: soluble

Req: Subsequent entry: MSLNNIAPQSPVMRRLTLQDNPAIASVIRQVYAEYGLTADKGYTVADPNLDELYQVYSQPGHAYWVVEYNGEVVGGGGIAPLTGSEADICELQKMYFLPAIRGKGLAKKLALMAMEQAREMGFKRCYLETTAFLKEAIALYEHLGFEHIDYALGCTGHVDCEVRMLRELEGHHHHHH
Resp: not soluble

Req: Another: IGVFLKDKQKVLVVEESEPFIEEQIRIEGNVYGKKTGHLPYGQVTSKDIDFALEHIEEEKVSRPADPGLIESRKKSRASICEDCPYLPLYNFLRISGVRVAGDMGCSVRSAPEPLSAVDVSFALGSAISVACGFERKGIAVIGDFALAHSGILGLLNAVSEGHEVLVLVLQNEVAAMTGGQKVPDLRKVIEAIVPDVSVFDMDGRKEKEQASGSELSDLITEKLALPGISVIFI
Resp: not soluble

Req: Now the sequence MDLICMYVFKGEESFGESIDVYGDYLIVKVGTEFLAVPKKSIKSVEDGRIVIGEFDEEEARELGRKWLEEKSKPVTLEELKSYGFGEEGE
Resp: not soluble
